So I've got a bunch of molecules here, and I need their inhibition values.
molecular target: Acetylcholinesterase (Electrophorus electricus) (UniProt O42275); test: Inhibition of Electrophorus electricus AChE using acetylthiocholine iodide as substrate at 50 uM after 20 mins measured for 1 min interval for 30 mins by Ellman's method
Sequence (O42275 24-633 limits assumed): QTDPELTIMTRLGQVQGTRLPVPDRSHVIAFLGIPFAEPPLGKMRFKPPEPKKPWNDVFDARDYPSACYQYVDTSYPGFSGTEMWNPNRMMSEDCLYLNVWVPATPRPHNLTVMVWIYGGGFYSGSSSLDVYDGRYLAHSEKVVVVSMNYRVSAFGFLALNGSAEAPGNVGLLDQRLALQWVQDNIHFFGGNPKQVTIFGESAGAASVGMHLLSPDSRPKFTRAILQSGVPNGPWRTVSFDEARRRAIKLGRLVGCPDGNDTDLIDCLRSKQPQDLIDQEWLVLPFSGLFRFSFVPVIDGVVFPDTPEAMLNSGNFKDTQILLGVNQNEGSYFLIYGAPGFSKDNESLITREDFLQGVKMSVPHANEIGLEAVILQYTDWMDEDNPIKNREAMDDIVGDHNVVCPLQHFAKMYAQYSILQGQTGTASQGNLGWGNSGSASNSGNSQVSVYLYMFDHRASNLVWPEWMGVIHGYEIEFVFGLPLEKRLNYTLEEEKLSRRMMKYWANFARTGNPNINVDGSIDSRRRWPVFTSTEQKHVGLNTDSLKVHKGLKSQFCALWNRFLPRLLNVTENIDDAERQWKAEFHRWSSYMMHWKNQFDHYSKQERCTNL
Answers are plain numbers, in %.

- cpd_smiles: "COC(=O)[C@@]1(C)CC[C@]2(C)CC[C@]3(C)C(=CC(=O)[C@@H]4[C@@]5(C)CC[C@H](OC(=O)[C@@H](N)CCN)C(C)(C)[C@@H]5CC[C@]43C)[C@@H]2C1"
  inhibition (%): 68
- cpd_smiles: "CC1(C)[C@@H](O)CC[C@]2(C)[C@H]3C(=O)C=C4[C@@H]5C[C@@](C)(C(=O)NCCCN)CC[C@]5(C)CC[C@@]4(C)[C@]3(C)CC[C@@H]12"
  inhibition (%): 35
- cpd_smiles: "COC(=O)[C@@]1(C)CC[C@]2(C)CC[C@]3(C)C(=CC(=O)[C@@H]4[C@@]5(C)CC[C@H](OC(=O)[C@@H](N)CCC(=O)OCc6ccccc6)C(C)(C)[C@@H]5CC[C@]43C)[C@@H]2C1"
  inhibition (%): 58

Here is another molecule to look at.
Qu. Given the molecule CC1(C)[C@@H](O)CC[C@]2(C)[C@H]3C(=O)C=C4[C@@H]5C[C@@](C)(C(=O)OCCCCCCBr)CC[C@]5(C)CC[C@@]4(C)[C@]3(C)CC[C@@H]12 , what is its reported inhibition?
Ans. 43

These measurements were taken from ChEMBL document CHEMBL3286281.
